# target: T1, human iRhom2 (inactive rhomboid protein 2, isoform 1), endogenously expressed on human cells (human, UniProt Q6PJF5 1-856)
# T1 sequence: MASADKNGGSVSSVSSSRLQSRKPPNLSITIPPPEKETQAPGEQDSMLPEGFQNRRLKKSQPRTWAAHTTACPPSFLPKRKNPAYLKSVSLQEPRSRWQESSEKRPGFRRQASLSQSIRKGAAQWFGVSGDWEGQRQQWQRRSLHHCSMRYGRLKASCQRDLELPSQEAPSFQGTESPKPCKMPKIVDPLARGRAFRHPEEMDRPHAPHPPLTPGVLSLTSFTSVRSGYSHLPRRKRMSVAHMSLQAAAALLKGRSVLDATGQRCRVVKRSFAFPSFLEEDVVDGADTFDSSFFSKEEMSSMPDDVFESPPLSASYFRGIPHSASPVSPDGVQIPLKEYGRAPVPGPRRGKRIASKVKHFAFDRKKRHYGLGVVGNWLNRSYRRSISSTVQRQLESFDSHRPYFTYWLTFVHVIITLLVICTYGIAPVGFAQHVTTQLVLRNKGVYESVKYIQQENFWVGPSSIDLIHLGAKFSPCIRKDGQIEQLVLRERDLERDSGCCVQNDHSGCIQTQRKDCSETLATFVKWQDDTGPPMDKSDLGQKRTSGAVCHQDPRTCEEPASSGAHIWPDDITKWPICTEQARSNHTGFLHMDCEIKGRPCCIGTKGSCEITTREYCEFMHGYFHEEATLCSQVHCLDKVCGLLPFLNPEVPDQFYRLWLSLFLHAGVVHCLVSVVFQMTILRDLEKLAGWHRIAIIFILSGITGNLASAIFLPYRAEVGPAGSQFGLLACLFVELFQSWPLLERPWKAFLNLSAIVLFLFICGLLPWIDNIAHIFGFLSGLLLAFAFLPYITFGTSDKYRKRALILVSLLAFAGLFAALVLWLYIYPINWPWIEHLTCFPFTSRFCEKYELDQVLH
# method description: cell-based or functional assay
observable: inhibition of PMA-induced release of TGFα from PC3 cells, 1 µg/ml (% inhibition)
Give the quantity in % inhibition, number only.

Exercise: Report inhibition of PMA-induced release of TGFα from PC3 cells, 1 µg/ml for antibody 42 (antibody, V domains shown, Mouse IgG, kappa light chain; also called clone #42; m42) VH: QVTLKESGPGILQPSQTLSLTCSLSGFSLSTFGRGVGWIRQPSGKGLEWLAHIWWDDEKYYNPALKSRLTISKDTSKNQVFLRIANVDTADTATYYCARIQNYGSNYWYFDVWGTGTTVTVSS VL: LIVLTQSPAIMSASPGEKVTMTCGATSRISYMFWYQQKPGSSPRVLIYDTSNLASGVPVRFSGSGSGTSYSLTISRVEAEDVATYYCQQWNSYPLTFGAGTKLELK
Solution: 14.3
